molecular target: Fibronectin Extra Domain B, wild type, hexahistidine-tagged (human) (UniProt P02751); assay: fluorescence polarisation; fluorescence anisotropy saturation binding in solution; fixed FAM-PL1, 0-112 µM FN-EDB or 0-275 µM TNC-C; PBS with 0.1% Pluronic F-127; 24 h at 25 °C; non-specific binding with 500 µM Biotin-Ahx-PL1; global fit, single site with ligand depletion
Ahx = NCCCCCC(=O)O
readout-label: Kd (nM)

- {5(6)‑carboxyfluorescein-Ahx}-PPRRGLIKLKTS-OH [FAM-PL1 peptide (free peptide)]: 1110
